# System: RPMI-8226 leukemia
# assay-details: NCI-60 one-dose screen, 48 h
# assay-conditions: 10 µM unless noted
Compounds without any hit were thinned out: in the full panel of roughly 83,000, 20% have a hit. Calls of active or inactive are those of the source. The calls were made as follows: active = growth percent below 10; inactive = the rest.
Answer with one of the outcomes given here: Y = active, N = inactive

compound=N#Cc1c(N)c(C(=O)c2ccc3c(c2)OCCO3)n2c1CCCC2 class_label=Y
compound="CC1=C(C(=O)Nc2ccc(F)cc2)C(c2ccccc2)C2=C(CC(C)(C)CC2=O)N1 (stereo not given)" class_label=N
compound="CC(C)(C)NC(=O)C(OC(=O)C1CCc2cc(F)ccc2O1)c1ccccc1Cl (stereo not given)" class_label=N
compound="CCCCNCC(O)c1cc(-c2ccc(C(F)(F)F)cc2)nc(-c2ccc(C(F)(F)F)cc2)c1 (stereo not given)" class_label=Y
compound="O=C(NCC(c1ccsc1)N1CCCCCC1)c1ccc(C(F)(F)F)cc1 (stereo not given)" class_label=N

Hey, what did the test say about "CCCNC(=S)N/N=C(\C)c1ccccn1" ?
N

// outcome(item) with item = "Fc1ccc(-c2nnc(N3CCOCC3)c3ccccc23)cc1"
N

Status in this test for "C[C@@H]1C[C@H](N)C[C@H](c2ccncc2NC(=O)c2ccc(F)c(-c3c(F)cccc3F)n2)C1" ?
Y

Hello, I am checking results. What call was entered for COc1cc(C2C=C(C)N=C3SC=NN32)cc(OC)c1OC (stereo not given) ?
N

// outcome(item) with item = "CC(=O)c1ccc(Nc2nc(Cl)nc(Oc3c(Cl)cccc3Cl)n2)cc1"
N

Origin of measurements: PubChem BioAssay (NCI)
